The values you see were collected from patent US7112685B2.

Target: hVR1 receptors (Homo sapiens, UniProt Q8NER1)
Construct: expressed in transfected cells; host or cells: HEK293 cells (membranes)
Sequence (Q8NER1 whole entry): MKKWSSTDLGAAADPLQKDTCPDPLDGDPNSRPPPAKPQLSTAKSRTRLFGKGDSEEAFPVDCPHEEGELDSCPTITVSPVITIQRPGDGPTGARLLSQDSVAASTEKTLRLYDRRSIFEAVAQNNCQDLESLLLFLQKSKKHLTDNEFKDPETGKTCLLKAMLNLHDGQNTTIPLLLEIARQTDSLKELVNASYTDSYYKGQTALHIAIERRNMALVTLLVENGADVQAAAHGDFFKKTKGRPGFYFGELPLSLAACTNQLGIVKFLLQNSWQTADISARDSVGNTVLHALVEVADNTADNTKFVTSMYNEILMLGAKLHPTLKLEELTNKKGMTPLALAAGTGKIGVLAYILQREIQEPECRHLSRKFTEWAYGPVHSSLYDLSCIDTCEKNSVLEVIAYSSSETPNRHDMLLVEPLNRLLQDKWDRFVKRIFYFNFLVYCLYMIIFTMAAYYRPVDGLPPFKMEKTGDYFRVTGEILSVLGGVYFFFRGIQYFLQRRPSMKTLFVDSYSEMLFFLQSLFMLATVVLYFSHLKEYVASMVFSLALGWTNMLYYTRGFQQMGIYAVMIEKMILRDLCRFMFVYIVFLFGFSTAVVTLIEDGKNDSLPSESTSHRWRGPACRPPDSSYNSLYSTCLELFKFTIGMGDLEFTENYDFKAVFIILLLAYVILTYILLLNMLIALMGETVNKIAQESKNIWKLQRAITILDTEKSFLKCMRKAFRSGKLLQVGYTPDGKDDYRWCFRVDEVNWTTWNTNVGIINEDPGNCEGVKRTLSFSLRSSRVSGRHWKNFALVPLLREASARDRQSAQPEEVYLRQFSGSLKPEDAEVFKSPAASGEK
Assay: [3H] RTX Binding Assay (inhibition of [3H] RTX binding to membranes of HEK293 cells transfected with human VR1)
Conditions: [3H] RTX 0.4 nM, 37° C. for 60 min, HEK293 membranes; two experiments, each point in duplicate; read-out: IC50 Value for Binding to a hVR1 Receptor
valueType: IC50

Query: What IC50 value was documented for this molecule, "C=C(C)[C@]12C[C@@H](C)[C@@]34O[C@](Cc5ccccc5)(O[C@@H]1[C@@H]3C=C(COC(=O)Cc1ccc(O)c(OC)c1)C[C@]1(O)C(=O)C(C)=C[C@@H]41)O2" ?
Result: 90 pM
